biological target: SARS-CoV-2 NSP3 Mac1 (Severe acute respiratory syndrome coronavirus 2, UniProt P0DTD1); test: biochemical; format: binding; details: HTRF ADPr-conjugated peptide displacement; read-out: IC50
Define the label as y when IC50 is strictly less than 20 µM and as n in all remaining cases.

O=C(NC1C=CC(C(=O)O)C1)c1ncnc2sccc12 (centres unmarked) [Z6645]; n
O=C(O)CC(NC(=O)c1cc(F)cc2[nH]cnc12)c1ccc(Br)cc1 (centres unmarked) [Z3722]; n
O=C(O)C1(F)CN(c2ncnc3[nH]c4cc(F)ccc4c23)CC1C1CC1 (centres unmarked) [LL123_0032]; n

--- query ---
Task: Confirm or reject: IC50 of O=C(O)C1CN(c2ncnc3[nH]c4cc(F)ccc4c23)CC12CCC2 (centres unmarked) [LL123_0020] lies strictly below 20 µM
Result: y
